In this section, each of the compounds is paired with its reported Emax.
Target: hPPARγ (Homo sapiens, UniProt P37231)
Sequence (P37231 238-505): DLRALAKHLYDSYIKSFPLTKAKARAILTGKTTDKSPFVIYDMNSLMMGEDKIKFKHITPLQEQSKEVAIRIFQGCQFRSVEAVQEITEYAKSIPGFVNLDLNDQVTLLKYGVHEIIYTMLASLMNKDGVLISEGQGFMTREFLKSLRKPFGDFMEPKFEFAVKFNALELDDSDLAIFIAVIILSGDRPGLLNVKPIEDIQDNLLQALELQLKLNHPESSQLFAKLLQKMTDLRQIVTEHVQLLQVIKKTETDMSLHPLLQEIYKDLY
Assay: PPAR/Gal4 chimera luciferase reporter transactivation assay in transiently transfected Cos-7 cells (hPPARγ)
Format: cell-based
Conditions: COS-7, read-out: hPPARγ Efficacy (%)
Lab book: enter the figure in %, no units written.

1. COC(=O)COC(=O)/C(C)=C/CC/C(C)=C/CCC1(C)CCc2cc(OC)cc(C)c2O1 (stereo not shown) [Compound 8] | 24
2. COC(=O)COC(=O)/C(C)=C/CC/C(C)=C/CCC1(C)CCc2cc(OC(=O)c3ccccc3)cc(C)c2O1 (stereo not shown) [Compound 6] | 0
3. C/C(=C\CCC1(C)CCc2cc(OCc3ccccc3)cc(C)c2O1)CC/C=C(\C)C(=O)OCc1ccccc1 (stereo not shown) [Compound 4b] | 0
4. C/C(=C\CCC1(C)CCc2cc(O)cc(C)c2O1)CC/C=C(\C)C(=O)O (stereo not shown) [Polycerasoidol, 1, polycerasoidol] | 95
5. CCO/C(=C\CC/C(C)=C/CCC1(C)CCc2cc(OCc3ccccc3)ccc2O1)C(=O)O (stereo not shown) [Compound 11] | 62
6. CCOC(=O)/C(=C/CC/C(C)=C/CCC1(C)CCc2cc(OCc3ccccc3)ccc2O1)OCC (stereo not shown) [Compound 10] | 183

In: Item CCOC(=O)/C(=C/CC/C(C)=C/CCC1(C)CCc2cc(OCc3ccc(F)cc3)ccc2O1)OCC (stereo not shown) [Compound 12] has what recorded Emax?
Out: 183

Attribution: patent EP3733658B1
